Value source: ChEMBL document CHEMBL1154564

Target: Alpha-1B adrenergic receptor (Rattus norvegicus)
Sequence (P15823 whole entry): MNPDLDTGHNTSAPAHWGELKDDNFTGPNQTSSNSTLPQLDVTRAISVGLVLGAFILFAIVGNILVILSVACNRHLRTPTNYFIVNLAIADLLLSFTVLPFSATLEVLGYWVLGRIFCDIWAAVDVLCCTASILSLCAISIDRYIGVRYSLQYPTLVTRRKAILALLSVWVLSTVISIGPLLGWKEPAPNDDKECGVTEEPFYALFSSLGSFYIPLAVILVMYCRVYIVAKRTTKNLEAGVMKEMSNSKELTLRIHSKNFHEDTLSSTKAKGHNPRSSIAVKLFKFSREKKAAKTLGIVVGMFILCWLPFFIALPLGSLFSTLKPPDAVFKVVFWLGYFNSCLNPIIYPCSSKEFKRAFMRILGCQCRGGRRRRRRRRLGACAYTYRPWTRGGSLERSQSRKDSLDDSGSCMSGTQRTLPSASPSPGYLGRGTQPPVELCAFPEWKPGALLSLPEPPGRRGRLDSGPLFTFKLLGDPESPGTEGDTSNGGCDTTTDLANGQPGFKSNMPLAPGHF
Ki reference

compound: COc1cc2c(cc1O)C[C@H]1c3c(cc(O)c(OC)c3-2)CCN1C [BOLDINE]
Ki (µM): 0.316
--
compound: COc1cc2c(cc1O)C[C@H]1c3c(c(Br)c(O)c(OC)c3-2)CCN1C [3-BROMOBOLDINE]
Ki (µM): 0.135
--
compound: COc1cc2c(c(Br)c1O)C[C@H]1c3c(c(Br)c(O)c(OC)c3-2)CCN1C
Ki (µM): 0.12
--
compound: COc1cc2c(cc1O)C[C@H]1c3c(c(Cl)c(O)c(OC)c3-2)CCN1C
Ki (µM): 0.269

* * *

organism: Rattus norvegicus; experiment: Selectivity ratio of IC50 for Wistar rat dopamine D2 receptor to IC50 for Wistar rat dopamine D1 receptor

structure as smiles: COc1cc2c(cc1O)C[C@H]1c3c(c(Cl)c(O)c(OC)c3-2)CCN1C
Ratio IC50: 8.9
//
structure as smiles: COc1cc2c(c(Br)c1O)C[C@H]1c3c(c(Br)c(O)c(OC)c3-2)CCN1C
Ratio IC50: 9.3
//
structure as smiles: COc1cc2c(cc1O)C[C@H]1c3c(c(I)c(O)c(OC)c3-2)CCN1C
Ratio IC50: 32
//
structure as smiles: COc1cc2c(cc1O)C[C@H]1c3c(c(Br)c(O)c(OC)c3-2)CCN1C
Ratio IC50: 15.9

* * *

target: D(1A) dopamine receptor (Rattus norvegicus); experiment: Displacement of [3H]SCH23390 from dopamine D1 receptor in Wistar rat striatal membrane
Sequence (P18901 whole entry): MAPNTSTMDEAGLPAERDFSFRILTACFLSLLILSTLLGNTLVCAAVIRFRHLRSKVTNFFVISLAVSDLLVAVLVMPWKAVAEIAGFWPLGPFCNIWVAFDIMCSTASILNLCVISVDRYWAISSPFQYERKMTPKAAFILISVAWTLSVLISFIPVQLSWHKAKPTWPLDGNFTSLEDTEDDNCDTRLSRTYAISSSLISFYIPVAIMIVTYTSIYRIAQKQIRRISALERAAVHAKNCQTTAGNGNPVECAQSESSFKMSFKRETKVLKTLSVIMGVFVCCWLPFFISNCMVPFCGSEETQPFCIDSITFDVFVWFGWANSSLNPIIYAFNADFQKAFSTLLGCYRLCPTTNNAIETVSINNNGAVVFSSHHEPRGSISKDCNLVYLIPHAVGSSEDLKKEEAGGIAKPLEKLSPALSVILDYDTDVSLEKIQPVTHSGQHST

structure as smiles: COc1cc2c(c(Br)c1O)C[C@H]1c3c(c(Br)c(O)c(OC)c3-2)CCN1C
test target: D(1A) dopamine receptor (Rattus norvegicus)
IC50 (nM): 206
//
structure as smiles: COc1cc2c(cc1O)C[C@H]1c3c(c(Cl)c(O)c(OC)c3-2)CCN1C
test target: D(1A) dopamine receptor (Rattus norvegicus)
IC50 (nM): 81
//
structure as smiles: COc1cc2c(cc1O)C[C@H]1c3c(c(I)c(O)c(OC)c3-2)CCN1C
test target: D(1A) dopamine receptor (Rattus norvegicus)
IC50 (nM): 3
//
structure as smiles: COc1cc2c(cc1O)C[C@H]1c3c(c(Br)c(O)c(OC)c3-2)CCN1C
test target: D(1A) dopamine receptor (Rattus norvegicus)
IC50 (nM): 66
